# assayMethodText: Enthalpy of solution by microreaction calorimetry
# Assay type: physicochemical
# appliedConditions: methanol, 25°C
Use 1 kcal/mol as the dividing line for Molar enthalpy of solution, Methanol ΔsolH (methanol), with the line itself on the true side and lower values as false.

Completed entries (count: 5):
INSERT INTO measurements (compound, class) VALUES
  ('CC(C)=O.CC(C)=O.CC(C)c1c(C(=O)Nc2ccccc2)c(-c2ccccc2)c(-c2ccc(F)cc2)n1CC[C@@H](O)C[C@@H](O)CC(=O)[O-].CC(C)c1c(C(=O)Nc2ccccc2)c(-c2ccccc2)c(-c2ccc(F)cc2)n1CC[C@@H](O)C[C@@H](O)CC(=O)[O-].CC(C)c1c(C(=O)Nc2ccccc2)c(-c2ccccc2)c(-c2ccc(F)cc2)n1CC[C@@H](O)C[C@@H](O)CC(=O)[O-].CC(C)c1c(C(=O)Nc2ccccc2)c(-c2ccccc2)c(-c2ccc(F)cc2)n1CC[C@@H](O)C[C@@H](O)CC(=O)[O-].CCO.[Ca+2].[Ca+2] [Solvate VI]', 'true'),
  ('CC(C)c1c(C(=O)Nc2ccccc2)c(-c2ccccc2)c(-c2ccc(F)cc2)n1CC[C@@H](O)C[C@@H](O)CC(=O)[O-].CC(C)c1c(C(=O)Nc2ccccc2)c(-c2ccccc2)c(-c2ccc(F)cc2)n1CC[C@@H](O)C[C@@H](O)CC(=O)[O-].CCO.[Ca+2] [Solvate III]', 'false'),
  ('CC(C)(C)O.CC(C)c1c(C(=O)Nc2ccccc2)c(-c2ccccc2)c(-c2ccc(F)cc2)n1CC[C@@H](O)C[C@@H](O)CC(=O)[O-].CC(C)c1c(C(=O)Nc2ccccc2)c(-c2ccccc2)c(-c2ccc(F)cc2)n1CC[C@@H](O)C[C@@H](O)CC(=O)[O-].CC(C)c1c(C(=O)Nc2ccccc2)c(-c2ccccc2)c(-c2ccc(F)cc2)n1CC[C@@H](O)C[C@@H](O)CC(=O)[O-].CC(C)c1c(C(=O)Nc2ccccc2)c(-c2ccccc2)c(-c2ccc(F)cc2)n1CC[C@@H](O)C[C@@H](O)CC(=O)[O-].[Ca+2].[Ca+2] [Solvate IV]', 'true'),
  ('C1CCOC1.CC(C)c1c(C(=O)Nc2ccccc2)c(-c2ccccc2)c(-c2ccc(F)cc2)n1CC[C@@H](O)C[C@@H](O)CC(=O)[O-].CC(C)c1c(C(=O)Nc2ccccc2)c(-c2ccccc2)c(-c2ccc(F)cc2)n1CC[C@@H](O)C[C@@H](O)CC(=O)[O-].[Ca+2] [Solvate II]', 'true'),
  ('CC(C)c1c(C(=O)Nc2ccccc2)c(-c2ccccc2)c(-c2ccc(F)cc2)n1CC[C@@H](O)C[C@@H](O)CC(=O)[O-].CC(C)c1c(C(=O)Nc2ccccc2)c(-c2ccccc2)c(-c2ccc(F)cc2)n1CC[C@@H](O)C[C@@H](O)CC(=O)[O-].CCCCO.[Ca+2] [Solvate VIII]', 'false');

Prompt line: Check this compound for Molar enthalpy of solution, Methanol ΔsolH (methanol) at or above 1 kcal/mol: CC(C)c1c(C(=O)Nc2ccccc2)c(-c2ccccc2)c(-c2ccc(F)cc2)n1CC[C@@H](O)C[C@@H](O)CC(=O)O [ATC, Atorvastatin calcium, reference compound]
Response line: true

Prompt line: Check this compound for Molar enthalpy of solution, Methanol ΔsolH (methanol) at or above 1 kcal/mol: CC(C)c1c(C(=O)Nc2ccccc2)c(-c2ccccc2)c(-c2ccc(F)cc2)n1CC[C@@H](O)C[C@@H](O)CC(=O)[O-].CC(C)c1c(C(=O)Nc2ccccc2)c(-c2ccccc2)c(-c2ccc(F)cc2)n1CC[C@@H](O)C[C@@H](O)CC(=O)[O-].CC(C)c1c(C(=O)Nc2ccccc2)c(-c2ccccc2)c(-c2ccc(F)cc2)n1CC[C@@H](O)C[C@@H](O)CC(=O)[O-].CC(C)c1c(C(=O)Nc2ccccc2)c(-c2ccccc2)c(-c2ccc(F)cc2)n1CC[C@@H](O)C[C@@H](O)CC(=O)[O-].CCO.O.O.[Ca+2].[Ca+2] [Solvate VII]
Response line: true

* * *

# assayMethodText: Enthalpy of solution by microreaction calorimetry
# Assay type: physicochemical
# appliedConditions: calculated by equation 3 from enthalpies of solution of drug and solvate in the solvent of solvation
# Protocol: Molar enthalpy of solution (ΔHsol) was determined in phosphate buffer (pH8) as well as in methanol. In order to determine the enthalpy associated with the solvation process the enthalpy of solution of a particular solvate was determined in its own solvent. (3) ΔsolyH=ΔsolH^1−ΔsolH^2 Calorimetric studies were performed on Microreaction calorimeter obtained from Thermal Hazards Technology, UK. […]
outcomeMeasure: Enthalpy of solvation ΔsolvH (kcal/mol)
// units = kcal/mol; emit number, no label

Prompt line: // query Enthalpy of solvation ΔsolvH value for entry CC(C)(C)O.CC(C)c1c(C(=O)Nc2ccccc2)c(-c2ccccc2)c(-c2ccc(F)cc2)n1CC[C@@H](O)C[C@@H](O)CC(=O)[O-].CC(C)c1c(C(=O)Nc2ccccc2)c(-c2ccccc2)c(-c2ccc(F)cc2)n1CC[C@@H](O)C[C@@H](O)CC(=O)[O-].CC(C)c1c(C(=O)Nc2ccccc2)c(-c2ccccc2)c(-c2ccc(F)cc2)n1CC[C@@H](O)C[C@@H](O)CC(=O)[O-].CC(C)c1c(C(=O)Nc2ccccc2)c(-c2ccccc2)c(-c2ccc(F)cc2)n1CC[C@@H](O)C[C@@H](O)CC(=O)[O-].[Ca+2].[Ca+2] [Solvate IV]
Response line: -7.574

* * *

// reported Molar enthalpy of solution in its own solvent, Solvates (ΔsolH^2) for each item listed
# assayMethodText: Enthalpy of solution by microreaction calorimetry
# Format: physicochemical
# appliedConditions: each solvate in its own solvent of solvation, 25°C
# Protocol: Molar enthalpy of solution (ΔHsol) was determined in phosphate buffer (pH8) as well as in methanol. In order to determine the enthalpy associated with the solvation process the enthalpy of solution of a particular solvate was determined in its own solvent. (3) ΔsolyH=ΔsolH^1−ΔsolH^2 Calorimetric studies were performed on Microreaction calorimeter obtained from Thermal Hazards Technology, UK. […]
// units = kcal/mol; emit number, no label

Completed entries (count: 3):
INSERT INTO results (compound, unitname, numericresult) VALUES
  ('CC(C)c1c(C(=O)Nc2ccccc2)c(-c2ccccc2)c(-c2ccc(F)cc2)n1CC[C@@H](O)C[C@@H](O)CC(=O)[O-].CC(C)c1c(C(=O)Nc2ccccc2)c(-c2ccccc2)c(-c2ccc(F)cc2)n1CC[C@@H](O)C[C@@H](O)CC(=O)[O-].CC(C)c1c(C(=O)Nc2ccccc2)c(-c2ccccc2)c(-c2ccc(F)cc2)n1CC[C@@H](O)C[C@@H](O)CC(=O)[O-].CC(C)c1c(C(=O)Nc2ccccc2)c(-c2ccccc2)c(-c2ccc(F)cc2)n1CC[C@@H](O)C[C@@H](O)CC(=O)[O-].CCO.O.O.[Ca+2].[Ca+2] [Solvate VII]', 'kcal/mol', -1.02),
  ('C1CCOC1.CC(C)c1c(C(=O)Nc2ccccc2)c(-c2ccccc2)c(-c2ccc(F)cc2)n1CC[C@@H](O)C[C@@H](O)CC(=O)[O-].CC(C)c1c(C(=O)Nc2ccccc2)c(-c2ccccc2)c(-c2ccc(F)cc2)n1CC[C@@H](O)C[C@@H](O)CC(=O)[O-].[Ca+2] [Solvate II]', 'kcal/mol', -2.706),
  ('CC(C)(C)O.CC(C)c1c(C(=O)Nc2ccccc2)c(-c2ccccc2)c(-c2ccc(F)cc2)n1CC[C@@H](O)C[C@@H](O)CC(=O)[O-].CC(C)c1c(C(=O)Nc2ccccc2)c(-c2ccccc2)c(-c2ccc(F)cc2)n1CC[C@@H](O)C[C@@H](O)CC(=O)[O-].CC(C)c1c(C(=O)Nc2ccccc2)c(-c2ccccc2)c(-c2ccc(F)cc2)n1CC[C@@H](O)C[C@@H](O)CC(=O)[O-].CC(C)c1c(C(=O)Nc2ccccc2)c(-c2ccccc2)c(-c2ccc(F)cc2)n1CC[C@@H](O)C[C@@H](O)CC(=O)[O-].[Ca+2].[Ca+2] [Solvate IV]', 'kcal/mol', 0.755);

Prompt line: // query Molar enthalpy of solution in its own solvent, Solvates (ΔsolH^2) value for entry CC(C)=O.CC(C)=O.CC(C)c1c(C(=O)Nc2ccccc2)c(-c2ccccc2)c(-c2ccc(F)cc2)n1CC[C@@H](O)C[C@@H](O)CC(=O)[O-].CC(C)c1c(C(=O)Nc2ccccc2)c(-c2ccccc2)c(-c2ccc(F)cc2)n1CC[C@@H](O)C[C@@H](O)CC(=O)[O-].CC(C)c1c(C(=O)Nc2ccccc2)c(-c2ccccc2)c(-c2ccc(F)cc2)n1CC[C@@H](O)C[C@@H](O)CC(=O)[O-].CC(C)c1c(C(=O)Nc2ccccc2)c(-c2ccccc2)c(-c2ccc(F)cc2)n1CC[C@@H](O)C[C@@H](O)CC(=O)[O-].CCO.[Ca+2].[Ca+2] [Solvate VI]
Response line: -2.581

* * *

// reported Molar enthalpy of solution, Methanol ΔsolH (methanol) for each item listed
# assayMethodText: Enthalpy of solution by microreaction calorimetry
# Format: physicochemical
# appliedConditions: methanol, 25°C
// units = kcal/mol; emit number, no label

INSERT INTO assay_data (molecule, numericresult) VALUES
  ('CC(C)O.CC(C)c1c(C(=O)Nc2ccccc2)c(-c2ccccc2)c(-c2ccc(F)cc2)n1CC[C@@H](O)C[C@@H](O)CC(=O)[O-].CC(C)c1c(C(=O)Nc2ccccc2)c(-c2ccccc2)c(-c2ccc(F)cc2)n1CC[C@@H](O)C[C@@H](O)CC(=O)[O-].CC(C)c1c(C(=O)Nc2ccccc2)c(-c2ccccc2)c(-c2ccc(F)cc2)n1CC[C@@H](O)C[C@@H](O)CC(=O)[O-].CC(C)c1c(C(=O)Nc2ccccc2)c(-c2ccccc2)c(-c2ccc(F)cc2)n1CC[C@@H](O)C[C@@H](O)CC(=O)[O-].[Ca+2].[Ca+2] [Solvate I]', 0.275);

Continue with the next molecule.
Prompt line: // query Molar enthalpy of solution, Methanol ΔsolH (methanol) value for entry CC(C)c1c(C(=O)Nc2ccccc2)c(-c2ccccc2)c(-c2ccc(F)cc2)n1CC[C@@H](O)C[C@@H](O)CC(=O)[O-].CC(C)c1c(C(=O)Nc2ccccc2)c(-c2ccccc2)c(-c2ccc(F)cc2)n1CC[C@@H](O)C[C@@H](O)CC(=O)[O-].CO.[Ca+2] [Solvate V]
Response line: 0.507

Measured values drawn from paper PMC3547732 for this set.
